Measured values drawn from patent US8987287B2 for this set.

Would you kindly list Emax for each of these compounds?
- Study System: κ opioid receptor (Homo sapiens (Human), UniProt P41145)
- Procedure Text: κ-opioid receptor [35S]GTPγS functional assay, HEK-293 or CHO cells
- Type: biochemical
- Reported Conditions: relative to U69,593; HEK-293 or CHO cells
Answers are plain numbers, in %.

Reference set, count: 6
Input line: GET Emax | system: κ opioid receptor (Homo sapiens (Human), UniProt P41145) | item: "O=C1NC(=O)[C@@]2(CC[C@H]3[C@H]4Cc5ccc(O)cc5[C@@]3(CCN4CC3CC3)C2)N1"
Output line: 86.3

Input line: Identify measured Emax obtained with κ opioid receptor (Homo sapiens (Human), UniProt P41145) for "O=C1NC[C@@]2(CC[C@@]3(O)[C@H]4Cc5ccc(O)cc5[C@@]3(CCN4CC3CC3)C2)N1" .
Output line: 67.3

Input line: Write Emax of "COc1ccc2c(c1)[C@]13CCN(CC4CC4)[C@H](C2)[C@]1(O)CC[C@@]1(C3)NC(=O)NC1=O" ; system used: κ opioid receptor (Homo sapiens (Human), UniProt P41145)
Output line: 63

Input line: Report measured Emax on κ opioid receptor (Homo sapiens (Human), UniProt P41145); entry: "O=C1NC(=O)[C@@]2(CC[C@@]3(O)[C@H]4Cc5ccc(O)cc5[C@@]3(CCN4CC3CC3)C2)N1"
Output line: 80.2

Input line: Report Emax from κ opioid receptor (Homo sapiens (Human), UniProt P41145) testing of "CCN1C(=O)NC(=O)[C@@]12CC[C@@]1(O)[C@H]3Cc4ccc(O)cc4[C@@]1(CCN3CC1CC1)C2"
Output line: 59.3

Input line: Using κ opioid receptor (Homo sapiens (Human), UniProt P41145) as the test system, report measured Emax of "CN1C(=O)NC(=O)[C@@]12CC[C@@]1(O)[C@H]3Cc4ccc(O)cc4[C@@]1(CCN3CC1CC1)C2" .
Output line: 74.7

Respectfully, I request Emax for each entry included below.
1. COc1ccc2c(c1)[C@]13CCN(CC4CC4)[C@H](C2)[C@@H]1CC[C@@]1(C3)NC(=O)NC1=O
2. COc1ccc2c(c1)[C@]13CCN(CC4CC4)[C@H](C2)[C@]1(O)CC[C@@]1(CNC(=O)N1)C3

Output line:
89.7
44.3

* * *

For each record, write down the corresponding Emax.
- Study System: μ-opioid receptor (Homo sapiens (Human), UniProt P35372)
- Procedure Text: μ-opioid receptor [35S]GTPγS functional assay, HEK-293 or CHO cells
- Assay type: biochemical
- Reported Conditions: relative to DAMGO; HEK-293 or CHO cells
Answers are plain numbers, in %.

Input line: Recall and state the measured Emax for "O=C1NC(=O)[C@@]2(CC[C@H]3[C@H]4Cc5ccc(O)cc5[C@@]3(CCN4CC3CC3)C2)N1" .
Output line: 37

Input line: Identify measured Emax associated with "COc1ccc2c(c1)[C@]13CCN(CC4CC4)[C@H](C2)[C@]1(O)CC[C@@]1(C3)NC(=O)NC1=O"
Output line: 31.3

Input line: State, in one line, measured Emax of "O=C1NC[C@@]2(CC[C@@]3(O)[C@H]4Cc5ccc(O)cc5[C@@]3(CCN4CC3CC3)C2)N1"
Output line: -1

Input line: Given the molecule "CCN1C(=O)NC(=O)[C@@]12CC[C@@]1(O)[C@H]3Cc4ccc(O)cc4[C@@]1(CCN3CC1CC1)C2" , write its reported Emax.
Output line: 1

Input line: Read the entry "COc1ccc2c(c1)[C@]13CCN(CC4CC4)[C@H](C2)[C@]1(O)CC[C@@]1(CNC(=O)N1)C3" and write its reported Emax.
Output line: 20.7

Provide each entry's Emax from the list below.
1. COc1ccc2c(c1)[C@]13CCN(CC4CC4)[C@H](C2)[C@@H]1CC[C@@]1(C3)NC(=O)NC1=O
2. CN1C(=O)NC(=O)[C@@]12CC[C@@]1(O)[C@H]3Cc4ccc(O)cc4[C@@]1(CCN3CC1CC1)C2
3. O=C1NC(=O)[C@@]2(CC[C@@]3(O)[C@H]4Cc5ccc(O)cc5[C@@]3(CCN4CC3CC3)C2)N1

Output line:
58.3
1
10.6
